Recorded values, source patent US7049289B1.

assay: Incorporation into clots induced in a rat model (rat inferior vena cava model); type: in vivo, rat (Male Wistar); conditions: Fresh Clots
The star is where a group is joined. Fmoc = O=C(OCC1c2ccccc2-c2ccccc21)*
// values below are reported Clot/blood
The response must contain the number and no unit.

>>> quantitative_result("NQEQVSPYTLLK [^123I-Cmpd 1, reference compound]")
1
>>> quantitative_result("Ac-NQEQVSPYTLLKG-Pn44 (also: 99mTc complex) [^99mTc-Cmpd 3]")
10
>>> quantitative_result("Ac-NQEQVSPLTLLKG-Pn216 (also: 99mTc complex) [^99mTc-Cmpd 19]")
3

Q: Request the reported Clot/blood associated with Ac-NQEQVG-Pn44 [^99mTc-Cmpd 17]
Result: 7

Q: Request the reported Clot/blood associated with Fmoc-NQEQVSPYTLLKG-Pn216 (also: 99mTc complex) [^99mTc-Cmpd 9]
Result: 13

Q: Request the reported Clot/blood associated with Ac-GQDPVKG-Pn216 (also: 99mTc complex) [^99mTc-Cmpd 48]
Result: 0.6

Q: Request the reported Clot/blood associated with Ac-NQEQVSP(I-Y)TLLKG-Pn216 [^99mTc-Cmpd 22]
Result: 11

Q: Request the reported Clot/blood associated with Ac-N—CH2NH2-QEQVSP(D-Y)TLL(D-K)G-Pn216 [^99mTc-Cmpd 34]
Result: 2

Q: Request the reported Clot/blood associated with Ac-NQEQVSPYTLL(D-K)G-Pn216 [^99mTc-Cmpd 28]
Result: 13

Q: Request the reported Clot/blood associated with Ac-NQEAVSPYTLLKG-Pn44 (also: 99mTc complex) [^99mTc-Cmpd 12]
Result: 20

Q: Request the reported Clot/blood associated with Ac-(D-N)QEQVSP(D-Y)TLL(D-K)G-Pn216 [^99mTc-Cmpd 32]
Result: 10
